Ref: patent US20260365653A1

TESTED TARGET: mutEGFR (D770_N771insNPG, T790) (Homo sapiens, UniProt P00533, INS770NPG/T790M)
Construct: exact insNPG construct not described; in-house EGFR proteins were N-terminal GST fusions from baculovirus/insect cells (borders R669-A1210 given only for WT, insSVD, insASV)
Sequence (P00533 with tags, fused parts or gaps INS770NPG/T790M limits assumed): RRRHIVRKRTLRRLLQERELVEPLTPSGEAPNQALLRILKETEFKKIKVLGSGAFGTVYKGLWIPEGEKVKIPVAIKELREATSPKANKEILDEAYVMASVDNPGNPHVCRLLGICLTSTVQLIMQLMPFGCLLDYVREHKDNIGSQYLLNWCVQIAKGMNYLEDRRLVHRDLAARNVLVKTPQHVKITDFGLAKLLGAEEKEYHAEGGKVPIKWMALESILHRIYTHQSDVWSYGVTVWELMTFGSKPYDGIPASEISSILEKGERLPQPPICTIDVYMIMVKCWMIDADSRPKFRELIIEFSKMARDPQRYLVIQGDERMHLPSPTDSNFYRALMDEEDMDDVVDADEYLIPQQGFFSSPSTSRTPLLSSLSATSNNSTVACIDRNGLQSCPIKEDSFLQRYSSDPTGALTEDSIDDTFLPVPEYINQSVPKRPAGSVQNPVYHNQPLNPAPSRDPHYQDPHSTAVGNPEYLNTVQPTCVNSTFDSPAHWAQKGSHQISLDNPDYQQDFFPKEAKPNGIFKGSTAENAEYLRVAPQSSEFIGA
PROTOCOL TEXT: mutEGFR (D770_N771insNPG, T790) kinase assay
Assay type: biochemical
MEASUREMENT SETUP: Table 2b (from US Priority Patent Application), mutEGFR D770_N771insNPG
MEASURED PROPERTY: IC50 (nM)
The response must be a number in nM with no trailing unit.

Check out these entries, answers already filled in.
[
  {
    "COMPOUND": "C=CC(=O)N1CCn2nc(-c3ccc(F)cc3)c(-c3ccncc3)c2C1 [Example 1]",
    "IC50 [nM]": 0.953
  },
  {
    "COMPOUND": "C=CC(=O)N1CCn2nc(-c3ccc(F)cc3)c(-c3ccncc3OC)c2C1 [Example 12]",
    "IC50 [nM]": 84.2
  },
  {
    "COMPOUND": "CC(C)N(C)C/C=C/C(=O)N1CCn2nc(-c3ccc(F)cc3)c(-c3ccnc(NC(=O)C4CC4)c3)c2C1 [Example 6]",
    "IC50 [nM]": 0.407
  }
]

Input line: Find the measured IC50 of C=CC(=O)N1CCn2nc(-c3ccc(Cl)c(C)c3)c(-c3ccncc3)c2C1 [Example 2] with mutEGFR (D770_N771insNPG, T790) (Homo sapiens, UniProt P00533, INS770NPG/T790M) as test system.
Output line: 0.146

Input line: Find the measured IC50 of C#CC(=O)N1CCn2nc(-c3ccc(F)cc3)c(-c3ccncc3)c2C1 [Example 13] with mutEGFR (D770_N771insNPG, T790) (Homo sapiens, UniProt P00533, INS770NPG/T790M) as test system.
Output line: 1.26

Input line: Find the measured IC50 of O=C(Nc1cc(-c2c(-c3ccc(F)cc3)nn3c2CN(C(=O)C2CO2)CC3)ccn1)C1CC1 (centres unmarked) [Example 9] with mutEGFR (D770_N771insNPG, T790) (Homo sapiens, UniProt P00533, INS770NPG/T790M) as test system.
Output line: 104

Input line: Find the measured IC50 of C=CC(=O)N1CCn2nc(-c3cccc(F)c3)c(-c3ccncc3)c2C1 [Example 4] with mutEGFR (D770_N771insNPG, T790) (Homo sapiens, UniProt P00533, INS770NPG/T790M) as test system.
Output line: 1.47

Input line: Find the measured IC50 of CN(C)C/C=C/C(=O)N1CCn2nc(-c3ccc(F)cc3)c(-c3ccnc(NC(=O)C4CC4)c3)c2C1 [Example 8] with mutEGFR (D770_N771insNPG, T790) (Homo sapiens, UniProt P00533, INS770NPG/T790M) as test system.
Output line: 0.765

* * *

TESTED TARGET: mutEGFR (D770_N771insNPG, T790) (Homo sapiens, UniProt P00533, INS770NPG/T790M)
Construct: exact insNPG construct not described; in-house EGFR proteins were N-terminal GST fusions from baculovirus/insect cells (borders R669-A1210 given only for WT, insSVD, insASV)
PROTOCOL TEXT: mutEGFR (D770_N771insNPG, T790) kinase assay
Format: biochemical
MEASUREMENT SETUP: Table 2a, D770_N771insNPG
MEASURED PROPERTY: pIC50
The scale used: pIC50 is minus the common logarithm of the concentration in molar units.

[
  {
    "MOLECULE": "CCOc1ccc(-c2nn3c(c2-c2ccncc2)CN(C(=O)/C=C/CN(C)C)CC3)cc1 [Example 147]",
    "MEASURED PROPERTY": "pIC50",
    "NUMERIC RESULT": 6.70
  },
  {
    "MOLECULE": "O=C(/C=C/CO)N1CCn2nc(-c3ccc(F)cc3)c(-c3ccncc3)c2C1 [Example 70]",
    "MEASURED PROPERTY": "pIC50",
    "NUMERIC RESULT": 7.04
  },
  {
    "MOLECULE": "C=C(F)C(=O)N1CCn2nc(-c3ccc(F)cc3)c(-c3ccncc3)c2C1 [Example 17]",
    "MEASURED PROPERTY": "pIC50",
    "NUMERIC RESULT": 7.07
  },
  {
    "MOLECULE": "C=CC(=O)N1CCn2nc(-c3ccc(Cl)c(F)c3)c(-c3ccncc3)c2C1 [Example 36]",
    "MEASURED PROPERTY": "pIC50",
    "NUMERIC RESULT": 8.95
  },
  {
    "MOLECULE": "O=C(/C=C/CN1CCC1)N1CCn2nc(-c3ccc(Cl)cc3)c(-c3ccncc3)c2C1 [Example 162]",
    "MEASURED PROPERTY": "pIC50",
    "NUMERIC RESULT": 8.63
  }
]

Input line: Provide measured pIC50 value, entry: O=C(/C=C/CN1CCC1)N1CCn2nc(-c3ccc(Cl)cc3F)c(-c3ccncc3)c2C1 [Example 77]
Output line: 8.80

Input line: Provide measured pIC50 value, entry: CC1c2c(-c3ccnc4[nH]ccc34)c(-c3ccc(C(F)(F)F)cc3)nn2CCN1C(=O)/C=C/CN(C)C (single isomer, unassigned; isomer 2) [Example 252]
Output line: 5.55
